molecular target: human serum albumin (HSA) (Homo sapiens); experiment: HSA binding by radio inversed affinity chromatography (RIAC); format: in vitro ADME; conditions: 177Lu-labelled; Superdex 75 Increase 10/300 GL, 700 μM HSA in PBS, 0.8 mL/min
Sequence (P02768 25-609): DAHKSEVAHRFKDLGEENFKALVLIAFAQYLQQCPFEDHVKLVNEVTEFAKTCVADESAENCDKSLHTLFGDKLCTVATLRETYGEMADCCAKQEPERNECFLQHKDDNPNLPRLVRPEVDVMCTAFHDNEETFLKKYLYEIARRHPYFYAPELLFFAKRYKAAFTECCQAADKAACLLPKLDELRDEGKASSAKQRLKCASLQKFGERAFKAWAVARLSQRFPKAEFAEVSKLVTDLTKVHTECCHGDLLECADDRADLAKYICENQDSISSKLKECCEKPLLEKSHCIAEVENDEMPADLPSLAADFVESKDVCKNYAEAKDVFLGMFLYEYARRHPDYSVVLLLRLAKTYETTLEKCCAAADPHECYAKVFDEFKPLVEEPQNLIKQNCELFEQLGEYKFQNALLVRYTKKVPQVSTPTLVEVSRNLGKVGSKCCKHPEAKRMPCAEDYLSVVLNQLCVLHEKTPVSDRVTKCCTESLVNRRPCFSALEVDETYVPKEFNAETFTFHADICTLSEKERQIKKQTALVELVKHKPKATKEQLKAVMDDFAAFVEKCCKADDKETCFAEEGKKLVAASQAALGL
This section presents molecules with their documented HSA-binding RIAC (apparent molecular weight) values.
reportedEndpoint: HSA-binding RIAC (apparent molecular weight) (kDa)

1. CC(C)(C)[Si](O)(c1ccc(C[N+](C)(C)CC(=O)NCCC[C@@H](NC(=O)CC[C@@H](C(=O)O)N2CCN(CC(=O)O)CCN(CC(=O)O)CCN(CC(=O)O)CC2)C(=O)NCCCCCC(=O)NCCC[C@@H](NC(=O)CC[C@H](NC(=O)N[C@@H](CCC(=O)O)C(=O)O)C(=O)O)C(=O)O)cc1)C(C)(C)C; 5.2
2. CC(C)(C)[Si](F)(c1ccc(C(=O)NC[C@@H](NC(=O)CC[C@@H](C(=O)O)N2CCN(CC(=O)O)CCN(CC(=O)O)CCN(CC(=O)O)CC2)C(=O)N[C@H](CCCCNC(=O)CCC(=O)NCCC[C@@H](NC(=O)CC[C@H](NC(=O)N[C@@H](CCC(=O)O)C(=O)O)C(=O)O)C(=O)O)C(=O)O)cc1)C(C)(C)C [rhPSMA-7.3, reference compound]; 30.2
3. CC(C)(C)[Si](O)(c1ccc(C(=O)N[C@H](CCC(=O)NC[C@@H](NC(=O)CC[C@@H](C(=O)O)N2CCN(CC(=O)O)CCN(CC(=O)O)CCN(CC(=O)O)CC2)C(=O)NCCCCCC(=O)NCCC[C@@H](NC(=O)CC[C@H](NC(=O)N[C@@H](CCC(=O)O)C(=O)O)C(=O)O)C(=O)O)C(=O)O)cc1)C(C)(C)C; 10.4
4. CC(C)(C)[Si](O)(c1ccc(C(=O)NC[C@@H](NC(=O)CC[C@@H](C(=O)O)N2CCN(CC(=O)O)CCN(CC(=O)O)CCN(CC(=O)O)CC2)C(=O)N[C@H](CO)C(=O)NCCC(=O)NCCC(=O)NCCC[C@@H](NC(=O)CC[C@H](NC(=O)N[C@@H](CCC(=O)O)C(=O)O)C(=O)O)C(=O)O)cc1)C(C)(C)C; 8.0

----------
This section presents molecules with their documented biodistribution: blood values.
tested on: LNCaP tumor-bearing CB17-SCID mice; assay: Biodistribution studies 24 h p.i.; assay type: in vivo; details: 177Lu-labelled, i.v. tail vein, mean±SD, n=4-5
reportedEndpoint: biodistribution: blood

1) CC(C)(C)[Si](F)(c1ccc(C(=O)NC[C@@H](NC(=O)CC[C@@H](C(=O)O)N2CCN(CC(=O)O)CCN(CC(=O)O)CCN(CC(=O)O)CC2)C(=O)N[C@H](CCCCNC(=O)CCC(=O)NCCC[C@@H](NC(=O)CC[C@H](NC(=O)N[C@@H](CCC(=O)O)C(=O)O)C(=O)O)C(=O)O)C(=O)O)cc1)C(C)(C)C [rhPSMA-7.3, reference compound]; 0.004 ± 0.002 % ID/g
2) CC(C)(C)[Si](O)(c1ccc(C(=O)N[C@H](CCC(=O)NC[C@@H](NC(=O)CC[C@@H](C(=O)O)N2CCN(CC(=O)O)CCN(CC(=O)O)CCN(CC(=O)O)CC2)C(=O)NCCCCCC(=O)NCCC[C@@H](NC(=O)CC[C@H](NC(=O)N[C@@H](CCC(=O)O)C(=O)O)C(=O)O)C(=O)O)C(=O)O)cc1)C(C)(C)C; 0.004 ± 0.003 % ID/g
3) CC(C)(C)[Si](F)(c1ccc(C(=O)NC[C@@H](NC(=O)CN2CCN(CC(=O)O)CCN(CC(=O)O)CCN(CC(=O)O)CC2)C(=O)N[C@H](CCCCNC(=O)CCC(=O)NCCC[C@@H](NC(=O)CC[C@H](NC(=O)N[C@@H](CCC(=O)O)C(=O)O)C(=O)O)C(=O)O)C(=O)O)cc1)C(C)(C)C [rhPSMA-10, reference compound]; 0.004 ± 0.001 % ID/g
